# Target Of Assay: Lysophosphatidic acid receptor 1 (Homo sapiens)
# Sequence (Q92633 whole entry): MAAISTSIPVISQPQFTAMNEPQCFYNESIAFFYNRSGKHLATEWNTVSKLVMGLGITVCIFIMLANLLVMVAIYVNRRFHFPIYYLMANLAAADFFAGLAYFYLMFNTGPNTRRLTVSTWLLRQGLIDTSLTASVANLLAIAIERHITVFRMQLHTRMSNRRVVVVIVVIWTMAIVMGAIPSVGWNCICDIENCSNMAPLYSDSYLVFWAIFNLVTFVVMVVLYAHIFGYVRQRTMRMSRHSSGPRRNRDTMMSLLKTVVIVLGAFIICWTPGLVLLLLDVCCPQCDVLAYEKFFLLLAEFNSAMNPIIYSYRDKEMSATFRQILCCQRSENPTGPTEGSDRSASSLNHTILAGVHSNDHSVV
# Assay Remarks: Antagonist activity at human LPA1 receptor expressed in […] cells assessed as inhibition of LPA-induced Ca2+ mobilization by FURA-2AM dye based fluorescence assay
Measured Attribute: Ki (nM)
Could you give me the number in nM? Just the number is fine.

CCCCCCCCCCCCCCCC(=O)OC[C@@H](O)CC(Br)P(=O)(O)O (some centres not stated) = 170

--- query ---
The compound listed as CCCCCCCC/C=C\CCCCCCCC(=O)OC[C@@H](O)CC(Br)P(=O)(O)O (some centres not stated) has a reported Ki of 170

----------
# Assay Remarks: Binding affinity to Yersinia YopH
Listing of entries alongside the reported Ki.
Could you give me the number in µM? Just the number is fine.

The molecule listed as CCN(CC)c1ccc2c(-c3ccc(S(=O)(=O)NCc4ccc(C(Br)P(=O)(O)O)cc4)cc3S(=O)(=O)[O-])c3ccc(=[N+](CC)CC)cc-3oc2c1 (centres undefined) has a reported Ki of 690

The molecule listed as O=P(O)(O)C(Br)c1ccccc1 (centres undefined) has a reported Ki of 4100

The molecule listed as CCN(CC)c1ccc2c(-c3ccc(S(=O)(=O)[O-])cc3S(=O)(=O)NCc3ccc(C(Br)P(=O)(O)O)cc3)c3ccc(=[N+](CC)CC)cc-3oc2c1 (centres undefined) has a reported Ki of 690

The molecule listed as O=C(CCCC[C@H]1SC[C@H]2NC(=O)N[C@H]21)NCc1ccc(C(Br)P(=O)(O)O)cc1 (some centres undefined) has a reported Ki of 740

----------
# Target Of Assay: Lysophosphatidic acid receptor 3 (Homo sapiens)
# Sequence (Q9UBY5 whole entry): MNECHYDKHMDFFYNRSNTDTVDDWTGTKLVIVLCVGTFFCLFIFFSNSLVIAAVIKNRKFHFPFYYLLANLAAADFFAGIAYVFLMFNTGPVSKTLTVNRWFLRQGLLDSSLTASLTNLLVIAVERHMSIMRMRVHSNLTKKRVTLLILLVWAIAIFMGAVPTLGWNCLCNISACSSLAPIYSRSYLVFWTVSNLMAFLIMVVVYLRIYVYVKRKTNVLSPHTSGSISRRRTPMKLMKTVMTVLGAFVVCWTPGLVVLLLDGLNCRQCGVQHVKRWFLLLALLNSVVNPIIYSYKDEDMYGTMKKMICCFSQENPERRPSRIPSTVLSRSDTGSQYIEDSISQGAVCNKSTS
# Assay Remarks: Antagonist activity at human LPA3 receptor expressed in […] cells assessed as inhibition of LPA-induced Ca2+ mobilization by FURA-2AM dye based fluorescence assay
Listing of entries alongside the reported pKi.
Recall that pKi is obtained by taking minus log10 of the concentration measured in molar.

CCCCCCCC/C=C\CCCCCCCC(=O)OC[C@@H](O)CC(Br)P(=O)(O)O (some centres not stated) = 6.77

The compound listed as CCCCCCCCCCCCCCCC(=O)OC[C@@H](O)CC(Br)P(=O)(O)O (some centres not stated) has a reported pKi of 6.77

----------
Listing of entries alongside the reported pKi.
# Target Of Assay: Lysophosphatidic acid receptor 4 (Homo sapiens, UniProt Q99677)
# Sequence (Q99677 whole entry): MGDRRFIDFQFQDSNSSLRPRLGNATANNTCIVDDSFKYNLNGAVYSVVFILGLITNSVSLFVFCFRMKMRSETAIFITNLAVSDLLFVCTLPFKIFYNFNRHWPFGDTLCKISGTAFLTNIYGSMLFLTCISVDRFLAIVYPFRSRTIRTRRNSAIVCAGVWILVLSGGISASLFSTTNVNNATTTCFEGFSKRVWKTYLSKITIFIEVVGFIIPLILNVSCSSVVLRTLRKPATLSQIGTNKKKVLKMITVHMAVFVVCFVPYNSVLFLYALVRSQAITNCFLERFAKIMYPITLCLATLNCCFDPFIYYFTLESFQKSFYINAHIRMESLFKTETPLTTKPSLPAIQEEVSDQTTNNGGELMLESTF
# Assay Remarks: Antagonist activity at human LPA4 receptor expressed in CHO cells assessed as inhibition of LPA-induced Ca2+ mobilization by FURA-2AM dye based fluorescence assay
Recall that pKi is obtained by taking minus log10 of the concentration measured in molar.

CCCCCCCCCCCCCCCC(=O)OC[C@@H](O)CC(Br)P(=O)(O)O (some centres not stated) = 6.77

--- query ---
The compound listed as CCCCCCCC/C=C\CCCCCCCC(=O)OC[C@@H](O)CC(Br)P(=O)(O)O (some centres not stated) has a reported pKi of 6.77

----------
# Target Of Assay: Autotaxin (Homo sapiens)
# Assay Remarks: Inhibition of recombinant ATX (unknown origin) assessed as inhibition of hydrolysis of fluoregenic lysoPC analogue FS-3
Listing of entries alongside the reported IC50.
Could you give me the number in µM? Just the number is fine.

CCCCCCCCCCCCCCCC(=O)OC[C@@H](O)C[C@@H](Br)P(=O)(O)O = 0.165

--- query ---
The compound listed as `CCCCCCCCCCCCCCCC(=O)OC[C@@H](O)C[C@H](Br)P(=O)(O)O` has a reported IC50 of 0.022
